- Tested on: DU145
- TEST_DESCRIPTION: Euclidean distance of Cell Painting phenotypic profile (signed KS, 77 features) to DMSO centroid (dimensionless distance); 5 or 10 uM (library dependent); higher = stronger phenotypic change vs DMSO (phenoactivity)
- CONDITION_LABEL: 48 h
Counter-ions that a name gives are not always drawn.
Quick list: Euclidean distance per entry.
Respond numerically, and do not add a unit to the figure.

COMPOUND	Euclidean distance
CC1CS(=O)(=O)CCN1/N=C/c1ccc([N+](=O)[O-])o1 (stereo not drawn) [Nifurtimox]	1.08
CC(C)(CO)[C@@H](O)C(=O)NCCCO [D panthenol]	0.819

State its Euclidean distance for this compound: CNCc1ccc(-c2cc(-c3nc(-c4ccc(S(=O)(=O)C(C)C)cc4)cnc3N)on2)cc1 3.77

State its Euclidean distance for this compound: CO[C@@]1(NC(=O)Cc2cccs2)C(=O)N2C(C(=O)O)=C(COC(N)=O)CS[C@@H]21 [Cefoxitin sodium] 1.51

State its Euclidean distance for this compound: COc1ccc(Cl)cc1C(=O)NCCc1ccc(S(=O)(=O)NC(=O)NC2CCCCC2)cc1 [Glyburide] 1.49

State its Euclidean distance for this compound: C[C@H](Nc1ccc(C#N)n(C)c1=O)c1cc2cc(Cl)ccc2[nH]c1=O [Olutasidenib (FT-2102)] 0.784

State its Euclidean distance for this compound: CCc1ccc(/C=C2/SC(=S)NC2=O)cc1 1.03

State its Euclidean distance for this compound: Cc1ccc(NC(=O)c2cccc(C(C)(C)C#N)c2)cc1Nc1ccc2ncn(C)c(=O)c2c1 1.98

State its Euclidean distance for this compound: C#CCN(C)CCCOc1ccc(Cl)cc1Cl [Clorgyline HCl] 0.727

State its Euclidean distance for this compound: O=C(COc1cccc2c(=O)[nH]ccc12)c1ccccc1 0.747

State its Euclidean distance for this compound: Cc1cc2ncnn2cc1Nc1ncc2c(n1)n(C1CCOCC1)c(=O)n2C 1.33

State its Euclidean distance for this compound: CCCCC(=O)O[C@]1(C(=O)CO)[C@@H](C)C[C@H]2[C@@H]3CCC4=CC(=O)C=C[C@]4(C)[C@@]3(F)[C@@H](O)C[C@@]21C [Betamethasone Valerate] 2.2

State its Euclidean distance for this compound: N#Cc1c(Oc2ccc(F)c(NC(=O)Cc3cccc(C(F)(F)F)c3)c2)ccc2nc(NC(=O)C3CC3)sc12 0.85

State its Euclidean distance for this compound: COc1cc(/C=C/C(=O)N2CCN(CC(=O)N3CCCC3)CC2)cc(OC)c1OC [Cinepazide maleate] 1.04

State its Euclidean distance for this compound: CCn1cc(C(=O)O)c(=O)c2cc(F)c(N3CCNCC3)cc21 [Norfloxacin] 0.924

State its Euclidean distance for this compound: CCN1C(=O)NC(c2ccccc2)C1=O (stereo not drawn) [Ethotoin] 0.615

State its Euclidean distance for this compound: CCCCOc1ccc(C(=O)CCN2CCCCC2)cc1 [Dyclonine HCl] 1.42

State its Euclidean distance for this compound: O=C(NCc1c(F)cc(F)cc1F)c1cn2c(c(O)c1=O)C(=O)N1[C@H]3CC[C@H](C3)O[C@@H]1C2 [Bictegravir] 2.63

====

- Tested on: HEPG2
- TEST_DESCRIPTION: Euclidean distance of Cell Painting phenotypic profile (signed KS, 77 features) to DMSO centroid (dimensionless distance); 5 or 10 uM (library dependent); higher = stronger phenotypic change vs DMSO (phenoactivity)
- CONDITION_LABEL: 48 h
Counter-ions that a name gives are not always drawn.
Quick list: Euclidean distance per entry.
Respond numerically, and do not add a unit to the figure.

Consider the following illustrative entries.
> print(dat)
                                    molecule  experimental.endpoint  value.reported
 1  O=c1[nH]c(=O)n([C@H]2C[C@H](O)[C@@H](CO)O2)cc1F     Euclidean distance            2.61
 2  CC(C)(C)c1ccc(C(=O)CCCN2CCC(OC(c3ccccc3)c3ccccc3)CC2)cc1     Euclidean distance           0.905
 3  COc1cc2nc(N(C)CCCNC(=O)C3CCCO3)nc(N)c2cc1OC (centres undefined) [Alfuzosin HCl]     Euclidean distance           0.675
 4  CCCN1CCCC[C@H]1C(=O)Nc1c(C)cccc1C [Ropivacaine]     Euclidean distance            1.18
 5  COc1ccccc1[C@H](Cn1c(=O)n(C(C)(C)C(=O)O)c(=O)c2c(C)c(-c3ncco3)sc21)OC1CCOCC1     Euclidean distance            1.31
 6  C[C@]12C=CC(=O)N[C@@H]1CC[C@@H]1[C@@H]2CC[C@]2(C)[C@@H](C(=O)Nc3cc(C(F)(F)F)ccc3C(F)(F)F)CC[C@@H]12 [Dutasteride]     Euclidean distance           0.422
 7  CCCCC(=O)N(Cc1ccc(-c2ccccc2-c2nnn[nH]2)cc1)[C@H](C(=O)O)C(C)C     Euclidean distance            0.48
 8  CO/N=C(\C(=O)N[C@@H]1C(=O)N2C(C(=O)OC(C)OC(C)=O)=C(COC(N)=O)CS[C@H]12)c1ccco1 (some centres undefined)     Euclidean distance            1.28
 9  NCCOB(c1ccccc1)c1ccccc1 [2-Aminoethyl Diphenylborinate (2-APB)]     Euclidean distance           0.822
10                         Nc1nc(=O)[nH]cc1F     Euclidean distance           0.392

State its Euclidean distance for this molecule: NC(=N\CCCCCC/N=C(N)/N=C(\N)Nc1ccc(Cl)cc1)/N=C(\N)Nc1ccc(Cl)cc1 [Chlorhexidine diacetate] 3.03

State its Euclidean distance for this molecule: COc1cc2nc(N3CCN(C(=O)c4ccco4)CC3)nc(N)c2cc1OC [Prazosin HCl] 0.382

State its Euclidean distance for this molecule: O=c1ncccn1[C@@H]1O[C@H](CO)[C@@H](O)[C@H]1O 0.887

State its Euclidean distance for this molecule: OCCN1C[C@H](O)[C@@H](O)[C@H](O)[C@H]1CO 0.675

State its Euclidean distance for this molecule: NS(=O)(=O)c1ccccc1 [Benzenesulfonamide] 0.909

State its Euclidean distance for this molecule: C[S+]([O-])c1ccc(-c2nc(-c3ccc(F)cc3)c(-c3ccncc3)[nH]2)cc1 (centres undefined) 2.4

====

- System: FB
- TEST_DESCRIPTION: Euclidean distance of Cell Painting phenotypic profile (signed KS, 77 features) to DMSO centroid (dimensionless distance); 5 or 10 uM (library dependent); higher = stronger phenotypic change vs DMSO (phenoactivity)
- CONDITION_LABEL: 48 h
EXPERIMENTAL_ENDPOINT: Euclidean distance
Respond numerically, and do not add a unit to the figure.

Consider the following illustrative entries.
COMPOUND	Euclidean distance
CC#CC(=O)N1CCC[C@H]1c1nc(-c2ccc(C(=O)Nc3ccccn3)cc2)c2c(N)nccn12	1.3
CC(=O)O[C@]1(C(C)=O)CC[C@H]2[C@@H]3C=C(Cl)C4=CC(=O)[C@@H]5C[C@@H]5[C@]4(C)[C@H]3CC[C@@]21C [Cyproterone Acetate]	0.862
Cc1cc(Nc2ccc(NC(=O)c3ccc(Nc4ccnc5ccccc45)cc3)cc2)nc(N)n1	5.18

State its Euclidean distance for this compound: Nc1nc(N)c(N=O)c(OCC2CCCCC2)n1 1.01

State its Euclidean distance for this compound: N[C@H]1C(O)O[C@H](CO)[C@@H](O)[C@@H]1O (some centres not stated) 0.896

State its Euclidean distance for this compound: O=C(OCCOCCO)c1ccccc1Nc1cccc(C(F)(F)F)c1 [Etofenamate] 1.79

State its Euclidean distance for this compound: CNC(=O)c1cc(Oc2ccc3nc(N[C@@H]4CCCC[C@H]4O)sc3c2)ccn1 1.9

State its Euclidean distance for this compound: CCn1cc(C(=O)O)c(=O)c2cc(F)c(N3CCNCC3)nc21 [Enoxacin Sesquihydrate] 0.738

State its Euclidean distance for this compound: C=CCc1cccc(/C=N/NC(=O)CN2CCN(Cc3ccccc3)CC2)c1O 1.79

State its Euclidean distance for this compound: NC[C@H]1CC[C@H](C(=O)O)CC1 0.672

State its Euclidean distance for this compound: C#CCC(Cc1cnc2nc(N)nc(N)c2n1)c1ccc(C(=O)N[C@@H](CCC(=O)O)C(=O)O)cc1 (some centres not stated) [Pralatrexate] 1.25

State its Euclidean distance for this compound: CC(C)c1ccc(NC(=O)Cn2cnc3c2c(=O)n(C)c(=O)n3C)cc1 0.919

State its Euclidean distance for this compound: CC1(C)S[C@@H]2[C@H](NC(=O)[C@H](N)c3ccccc3)C(=O)N2[C@H]1C(=O)O [Ampicillin sodium] 0.59

State its Euclidean distance for this compound: NCC[C@H](O)C(=O)N[C@@H]1C[C@H](N)[C@@H](O[C@H]2O[C@H](CN)[C@@H](O)[C@H](O)[C@H]2O)[C@H](O)[C@H]1O[C@H]1O[C@H](CO)[C@@H](O)[C@H](N)[C@H]1O [Amikacin hydrate] 1.08

State its Euclidean distance for this compound: CCCN[C@H]1CCc2nc(N)sc2C1 [Pramipexole 2HCl Monohydrate] 1.08

State its Euclidean distance for this compound: CC(C)Nc1cc(-c2c[nH]c(C(=O)N[C@H](CO)c3cccc(Cl)c3)c2)c(Cl)cn1 3.51

State its Euclidean distance for this compound: O=C1c2ccc(Nc3ccc(F)cc3F)cc2CCc2ccc(OC[C@H](O)CO)cc21 [Skepinone-L] 2.05
